Below, each entry is listed alongside its reported GI50.
Test system: SF-539 CNS
protocol-summary: NCI tumour cell line growth inhibition, 48 h

| smiles-structure | target | GI50 |
| --- | --- | --- |
| COc1ccc(CNc2c3ccccc3nc3ccccc23)cc1OC | SF-539 CNS | 2.82 µM |
| CCN(CC)CCNCC(=O)Oc1ccc(/C=C/C(=O)CC(=O)/C=C/c2ccc(OC(=O)CNCCN(CC)CC)c(OC)c2)cc1OC | SF-539 CNS | 2.59 µM |
| COc1ccc(-c2cc(-c3cccn3C)c(C#N)c(N)n2)cc1OC | SF-539 CNS | 82.4 µM |
| Cc1ccc(N(CSc2ccc(Cl)cc2)CSc2ccc(Cl)cc2)cc1 | SF-539 CNS | 1.02 µM |
| CC(=O)Oc1ccccc1C(=O)N=C1[Se]CCCN1C(=O)c1ccccc1OC(C)=O | SF-539 CNS | 2.66 µM |

Input line: May I ask what GI50 has been recorded for c1ccc2c3ccn4cc5c(cc4c-3nc2c1)CCCC5 ?
Output line: 3.4 µM

###

Test system: NCI-H226 lung
protocol-summary: NCI tumour cell line growth inhibition, 48 h; in the data active = GI50 below about 0.43 µM; inactive = the rest
Allowed answers: active, inactive

| smiles-structure | answer-label |
| --- | --- |
| O=C(CCCN1CC=C(n2c(=O)[nH]c3ccccc32)CC1)c1ccc(F)cc1 | inactive |
| NC(=O)C(=CNc1nc(-c2ccc(Cl)c(Cl)c2)cs1)C(N)=O | inactive |
| Cc1[nH]n(-c2cccc(Cl)c2)c(=O)c1/C=C1\C=Nc2ccc(Br)cc21 | inactive |
| c1ccc2c3ccn4cc5c(cc4c-3nc2c1)CCCC5 | inactive |
| O=C1c2ccn(CCCCNC(CO)(CO)CO)c2C(=O)c2c1c(O)c1ccccc1c2O | inactive |
| O=C(CN(C1CCCCC1)C1CCCCC1)Nc1ccc(S(=O)(=O)c2ccc(NC(=O)CN(C3CCCCC3)C3CCCCC3)cc2)cc1 | inactive |
| NC1CCCC[C@H]1N.N[C@@H]1CCCC[C@@H]1N.O=C(P(=O)([O-])[O-])P(=O)([O-])[O-].[Pt+4].[Pt+4] | inactive |
| CCN(CC)CC(C)(C)C(=O)/C=C/c1ccc(Cl)c(Cl)c1 | inactive |

Input line: # fetch the recorded call for C#CC(=O)Nc1cccc(Nc2nc3c(c(NCc4ccccc4)n2)CCCC3)c1 here
Output line: active

Input line: # fetch the recorded call for O=C(N/N=C\c1cc(Br)ccc1O)c1ccncc1 here
Output line: inactive

###

Tested on: MDA-MB-435
protocol-summary: NCI tumour cell line growth inhibition, 48 h
outcome-measure: TGI (µM)
# number only, unit µM dropped from output

| compound | TGI / µM |
| --- | --- |
| O=c1c(-c2ccccc2)c(SCCCN2CCN(c3cccc(Cl)c3)CC2)n(-c2ccccc2)c(=S)n1-c1ccccc1 | 42.4 |
| O=C1/C(=C\c2ccc([N+](=O)[O-])o2)SC2N=C(COc3ccc(Cl)cc3)NN12 (stereo unspecified) | 16.3 |

Field: next compound
Input line: May I ask what TGI has been recorded for CO[C@H]1[C@@H](O)[C@@H](C)O[C@@H](O[C@H]2CC[C@@]3(C)[C@H](CC[C@@H]4[C@@H]3CC[C@]3(C)[C@@H](C5=CC(=O)OC5)[C@@H](OC(C)=O)C[C@]43O)C2)[C@@H]1O ?
Output line: 0.407

###

Test system: SNB-19 CNS
protocol-summary: NCI tumour cell line growth inhibition, 48 h
Below, each entry is listed alongside its reported TGI.

Input line: May I ask what TGI has been recorded for O=c1[nH]c2cc(Cl)ccc2n1C1CCN(CCCC(c2ccc(F)cc2)c2ccc(F)cc2)CC1 ?
Output line: 3.79 µM

Input line: May I ask what TGI has been recorded for COc1ccc(CNc2c3ccccc3nc3ccccc23)cc1OC ?
Output line: 17.2 µM

Input line: May I ask what TGI has been recorded for Cn1ccc(C(=O)NCCOCCNC(=O)c2ccn(C)c(=O)c2O)c(O)c1=O ?
Output line: > 100 µM

###

System: RXF 393 renal
protocol-summary: NCI tumour cell line growth inhibition, 48 h
Below, each entry is listed alongside its reported GI50.

| molecule | GI50 |
| --- | --- |
| NC(=O)C(=CNc1nc(-c2ccc(Cl)c(Cl)c2)cs1)C(N)=O | > 100 µM |
| Cc1cn2c(/C=C3/C(=O)Nc4ccccc43)c(-c3ccc(Cl)cc3)nc2s1 | 3.72 µM |
| CN(C)c1ccc2nc3ccc(=O)cc-3sc2c1 | 2.92 µM |
| c1ccc2c3ccn4cc5c(cc4c-3nc2c1)CCCC5 | 5.62 µM |

Field: next molecule
Input line: Provide value of GI50 for this record tested with RXF 393 renal: O=C(O)c1cc(O)c2c(c1)C(C1c3cc(C(=O)O)cc(O)c3C(=O)c3c(OC4OC(CO)C(O)C(O)C4O)cccc31)c1cccc(OC3OC(CO)C(O)C(O)C3O)c1C2=O (stereo not given)
Output line: > 100 µM

###

Below, each entry is listed alongside its reported TGI.
Tested on: HCT-15 colon
protocol-summary: NCI tumour cell line growth inhibition, 48 h
# number only, unit µM dropped from output

| compound | result-units | TGI |
| --- | --- | --- |
| Cc1cc(C)cc(C(=N)c2ccccc2Cc2cccc3ccccc23)c1 | µM | 32.2 |

Field: next compound
Input line: May I ask what TGI has been recorded for Nc1ccc(C(=O)NN2C(=O)C(Cl)C2c2ccccc2Cl)cc1 (centres undefined) ?
Output line: 10.2

###

Tested on: SF-539 CNS
protocol-summary: NCI tumour cell line growth inhibition, 48 h
outcome-measure: TGI

Below, each entry is followed by its recorded TGI result.
| molecule | result |
| --- | --- |
| CC1=NC(=Cc2ccc(O)cc2)C(=O)N1n1c(-c2ccccc2)nc2ccccc2c1=O | > 100 µM |
| CNC(=S)N/N=C(C)\C(=N/NC(=S)NC)c1ccccc1 | > 100 µM |
| O=C(CCC(=O)Nc1cccc(Cl)c1)CC(=O)c1ccc(Cl)cc1 | > 100 µM |
| CCN(CC)CCOc1ccc(/C(=C(\C)c2ccc(F)c(OC)c2)c2ccc(Cl)cc2)cc1 | 4.74 µM |
| COc1ccccc1NC(=O)C1=C(C)NC(C)=C(C(=O)Nc2ccccc2OC)C1c1ccc([N+](=O)[O-])cc1 | > 100 µM |
| CN=NN(C)C(=O)NC | > 100 µM |
| Nc1ccc(C(=O)NN2C(=O)C(Cl)C2c2ccccc2Cl)cc1 (configuration not stated) | 20.2 µM |
| COC(CN(C(=O)c1ccccc1)C1CCC2(SCCS2)c2[nH]c3ccccc3c21)OC (configuration not stated) | > 100 µM |

Input line: May I ask what TGI has been recorded for O=C(CN1CCCCC1)N1CCc2c([nH]c3ccccc23)C1c1cccnc1 (configuration not stated) ?
Output line: > 100 µM

Input line: May I ask what TGI has been recorded for COC(=O)/C=C/C1C(C(=O)OC)C2(C(=O)OC)CCC1(C(=O)OC)N2 (configuration not stated) ?
Output line: > 100 µM

Input line: May I ask what TGI has been recorded for N#Cc1c(-c2ccccc2)[nH]c2ccccc2c1=O ?
Output line: > 100 µM

Input line: May I ask what TGI has been recorded for O/N=C\c1c(O)ccc2ccccc12 ?
Output line: > 100 µM

Input line: May I ask what TGI has been recorded for C[C@H]1[C@H](C)CC[C@]2(C)CC[C@]3(C)C(=C[C@@H](O)[C@@H]4[C@@]5(C)[C@H](O)[C@@H](O)[C@H](O)C(C)(C)[C@@H]5CC[C@]43C)[C@H]12 ?
Output line: > 100 µM

Input line: May I ask what TGI has been recorded for COc1ccc(-c2cc(-c3cccn3C)c(C#N)c(N)n2)cc1OC ?
Output line: > 100 µM

###

System: MALME-3M melanoma
protocol-summary: NCI tumour cell line growth inhibition, 48 h
Below, each entry is listed alongside its reported TGI.

Below, each entry is followed by its recorded TGI result.
| compound | result |
| --- | --- |
| COc1ccccc1NC(=O)C1=C(C)NC(C)=C(C(=O)Nc2ccccc2OC)C1c1ccc([N+](=O)[O-])cc1 | > 100 µM |
| CCOC(=O)c1[nH]c(COC(C)=O)c(CCCOC(C)=O)c1CCCOC(C)=O | > 100 µM |
| O=C(C[n+]1ccccc1)NNC(=O)/C(=C/c1ccc2c(c1)OCO2)NC(=O)c1ccccc1 | > 100 µM |
| CC1=C(C(N)=O)C(c2ccncc2)C(C#N)=C2SCC(=O)N12 (centres undefined) | > 100 µM |
| CCN(CC)CCOc1ccc(/C(=C(\C)c2ccc(F)c(OC)c2)c2ccc(Cl)cc2)cc1 | 4.7 µM |
| Cc1cccc2c1[C@]13OC(C)[C@]4(C)CC5OC(=O)[C@@]1(C)[C@@H]5[C@]34C(=O)O2 (some centres undefined) | > 100 µM |
| CCCCN1C=CN2c3nc4cc(C)c(C)cc4n3C(C(=O)OC)=C(C(=O)OC)C12 (centres undefined) | > 100 µM |
| CCCCCCCCCc1cc(=O)c2c(O)cccc2o1 | > 100 µM |
| O=C(Nc1cccc(Cl)c1)c1cc2ccccc2cc1O | 21.9 µM |
| CCC1c2[nH]c3ccccc3c2C[C@H]2C(=O)NC(COC(C)(C)C)C(=O)N12 (some centres undefined) | 94.7 µM |

Input line: May I ask what TGI has been recorded for COc1ccc2c(c1)CCc1c-2[nH]c2ccc(OC)cc12 ?
Output line: > 100 µM

Input line: May I ask what TGI has been recorded for CN1CCc2c(Sc3ccc(C(=O)NO)cc3)c3ccccc3n2C1 ?
Output line: 4.33 µM

Input line: May I ask what TGI has been recorded for CCN(CC)CCn1nc(N)c2nc3cc(Cl)ccc3nc21 ?
Output line: > 100 µM

Input line: May I ask what TGI has been recorded for CC(=O)O[C@@H]1C[C@]2(C(C)C)O[C@@]1(C)[C@@H]1CCC(C)=C1[C@@H]2OC(=O)/C=C/c1ccccc1 ?
Output line: > 100 µM

Input line: May I ask what TGI has been recorded for CC1(C)OCC2OC3(c4nc(C#N)c(N)o4)OC(C)(C)OC3C2O1 (centres undefined) ?
Output line: > 100 µM

Input line: May I ask what TGI has been recorded for Clc1ccc(Cl)c(Nc2ccnc(SCc3ccccc3)n2)c1 ?
Output line: > 100 µM

Input line: May I ask what TGI has been recorded for O=C1NC(=O)C(c2c[nH]c3cc(Br)ccc23)=C1c1cn(C(c2ccccc2)(c2ccccc2)c2ccccc2)cn1 ?
Output line: 56.8 µM

Input line: May I ask what TGI has been recorded for O/N=C\c1c(O)ccc2ccccc12 ?
Output line: 75.5 µM

Input line: May I ask what TGI has been recorded for Cc1c(C2Nc3ccccc3C2C)[nH]c2ccccc12 (centres undefined) ?
Output line: 24.8 µM
